# experiment-notes: Metabolic stability in human liver microsomes assessed as compound degradation measured after 30 mins
# Assay type: ADME, Microsome
# experimental-parameters: read-out: Drug degradation
readout-label: metabolised at 0.5 h (%)

Some compounds with recorded metabolised at 0.5 h:
1. C[C@H]1CCN1c1nc(-c2cnn(CCN(C)C)c2)cc(C(F)(F)F)c1C#N: 76
2. C[C@H]1CCN1c1nc(-c2cnn(C3CCNCC3)c2)cc(C(F)(F)F)c1C#N: 0

(P) C[C@H]1CCN1c1nc(-c2cnn(CC(=O)N3C[C@H](O)[C@@H](O)C3)c2)cc(C(F)(F)F)c1C#N
(Q) C[C@H]1CCN1c1nc(-c2cnn(C3CCN(C)CC3)c2)cc(C(F)(F)F)c1C#N
(R) C[C@H]1CCN1c1nc(-c2cnn(C3CNC3)c2)cc(C(F)(F)F)n1
(S) C[C@H]1CCN1c1nc(-c2cnn(C3CCOCC3)c2)cc(C(F)(F)F)c1C#N
(T) C[C@H]1CCN1c1nc(-c2cnn(CC(=O)N3CCNCC3)c2)cc(C(F)(F)F)n1 [LY-3522348]
Q) Please produce an ascending ranking of these compounds based on metabolised at 0.5 h. Reply: labels, ordered per the request.
A) T, R, Q, P, S

(A) C[C@H]1CCN1c1nc(-c2cnn(CCO)c2)cc(C(F)(F)F)c1C#N
(B) C[C@H]1CCN1c1nc(-c2cnn(C3CCNCC3)c2)cc(C(F)(F)F)n1
Q) Would you let me know which has the greater metabolised at 0.5 h value, A or B ? Lab log: write the label of the selected item as the result.
A) A

(A) C[C@H]1CCN1c1nc(-c2cnn(CC(=O)N3CCN(C)CC3)c2)cc(C(F)(F)F)c1C#N
(B) C[C@H]1CCN1c1nc(-c2cnn(C3CN(C)C3)c2)cc(C(F)(F)F)n1
Q) Would you let me know which has the greater metabolised at 0.5 h value, A or B ? Lab log: write the label of the selected item as the result.
A) A
(A: 60%, B: 20%)

====

# experiment-notes: Clearance in rat hepatocytes measured per 10^6 cells
# Format: ADME, cell-based, Hepatocyte
# experimental-parameters: read-out: CLH
readout-label: hepatocyte CLint (µL/min/1e6 cells)

Some molecules with recorded hepatocyte CLint:
1) C[C@H]1CCN1c1nc(-c2cn[nH]c2)cc(C(F)(F)F)c1C#N: 30
2) C[C@H]1CCN1c1nc(-c2cnn(C3CNC3)c2)cc(C(F)(F)F)n1: 11
3) C[C@H]1CCN1c1nc(-c2cnn(C3CCNCC3)c2)cc(C(F)(F)F)c1C#N: 3.7

(I) C[C@H]1CCN1c1nc(-c2cnn(CC(=O)N3C[C@@H](O)[C@H](O)C3)c2)cc(C(F)(F)F)c1C#N
(II) OC[C@H]1CCN1c1nc(-c2cnn(C3CNC3)c2)cc(C(F)(F)F)n1
Q) Kindly identify the item with the lower hepatocyte CLint figure among these two: I and II Lab log: write the label of the selected item as the result.
A) I
(I: 2.2 µL/min/1e6 cells, II: 10 µL/min/1e6 cells)

====

# experiment-notes: Half life in dog at 3 mg/kg, po
# Type: ADME, organism-based, Canis lupus familiaris
# experimental-parameters: in vivo
readout-label: half-life (h)
Your answer is read as h, so omit the unit and give the number.

Q) I would be grateful if you could share the reported half-life for `OC[C@H]1CCN1c1nc(-c2cnn(C3CCNCC3)c2)cc(C(F)(F)F)n1` .
A) 10
